Below, each entry is listed alongside its reported Kd.
- System name: GDP-bound KRAS wild-type protein (Homo sapiens, UniProt P01116)
- Sequence (P01116 whole entry): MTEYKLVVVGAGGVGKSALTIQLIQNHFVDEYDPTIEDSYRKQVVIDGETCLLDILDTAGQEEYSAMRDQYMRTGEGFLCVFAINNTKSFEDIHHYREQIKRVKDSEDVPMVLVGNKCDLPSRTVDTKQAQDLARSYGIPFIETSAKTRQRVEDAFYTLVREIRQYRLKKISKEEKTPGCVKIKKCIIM
- Test summary: Binding to KRAS by surface plasmon resonance (SPR), Single Cycle Kinetics
- Condition details: SPR, Single Cycle Kinetics, GDP-bound KRAS wild-type protein; read-out: KRAS KD
# value in pM; strip the unit string

Past entries and their recorded results:
[ask] # query: Kd | item CCO[C@@H]1C[C@H]2C(=O)NC3(CCC3)C(=O)N(C)[C@@H](C3CCCC3)C(=O)N(C)[C@H](CC)CC(=O)N(C)[C@@H](CC)C(=O)N[C@@H]([C@@H](C)CC)C(=O)N(C)CC(=O)N(C)[C@H]3C/C=C\CCN(C3=O)[C@@H](Cc3ccc(C(F)(F)F)cc3)C(=O)N(C)CC(=O)N[C@@H](CCc3cc(F)c(C(F)(F)F)c(F)c3)C(=O)N2C1 [PP1625] | system: GDP-bound KRAS wild-type protein (Homo sapiens, UniProt P01116)
[reply] 290

[ask] Subsequent entry: CCC[C@H]1C(=O)N[C@@H]([C@@H](C)CC)C(=O)N(C)CC(=O)N(C)[C@H]2C/C=C\CCN(C2=O)[C@@H](Cc2ccc(C)cc2)C(=O)N(C)CC(=O)N[C@@H](CCc2cc(F)c(C(F)(F)F)c(F)c2)C(=O)N2C[C@H](OCC)C[C@H]2C(=O)N(C)C2(CCC2)C(=O)N(C)[C@@H](C2CCCC2)C(=O)N(C)[C@H](C(=O)N2CCCCC2)CC(=O)N1C [PP3119]
[reply] 90

More entries:
[ask] # query: Kd | item CCO[C@@H]1C[C@H]2C(=O)NC3(CCC3)C(=O)N(C)[C@@H](C3CCCC3)C(=O)N(C)[C@H](C(=O)N3CCOCC3)CC(=O)N(C)[C@@H](CC(C)C)C(=O)N[C@@H]([C@@H](C)CC)C(=O)N(C)CC(=O)N(C)[C@H]3C/C=C\CCN(C3=O)[C@@H](Cc3ccc(C(F)(F)F)cc3)C(=O)N(C)CC(=O)N[C@@H](CCc3ccc(C(F)(F)F)c(Cl)c3)C(=O)N2C1 [PP0825] | system: GDP-bound KRAS wild-type protein (Homo sapiens, UniProt P01116)
[reply] 230

###

- System name: GDP-bound KRAS wild-type protein (Homo sapiens)
- Test summary: Binding to KRAS by surface plasmon resonance (SPR), Single Cycle Kinetics
- Condition details: SPR, Single Cycle Kinetics, 1:1 binding model; GDP-bound KRAS wild-type protein; read-out: KRAS KD
Below, each entry is listed alongside its reported Kd.
# value in nM; strip the unit string

[ask] # query: Kd | item C=CC[C@H]1C(=O)N[C@@H]([C@@H](C)CC)C(=O)N(C)CC(=O)N(C)[C@H]2C/C=C\CCN(C2=O)[C@@H](CC2CCCCC2)C(=O)N(C)CC(=O)N[C@@H](CCc2cc(F)c(C(F)(F)F)c(F)c2)C(=O)N2C[C@H](OCC)C[C@H]2C(=O)NC2(CCC2)C(=O)N(C)[C@@H](C2CCCC2)C(=O)N(C)[C@H](C(=O)N(C)C)CC(=O)N1C [PP1468] | system: GDP-bound KRAS wild-type protein (Homo sapiens)
[reply] 0.12

[ask] Subsequent entry: CCC[C@H]1C(=O)N[C@@H]([C@@H](C)CC)C(=O)N(C)CC(=O)N(C)[C@H]2C/C=C\CCN(C2=O)[C@@H](Cc2ccc(C(F)(F)F)cc2)C(=O)N(C)CC(=O)N[C@@H](CCc2cc(F)c(C(F)(F)F)c(F)c2)C(=O)N2C[C@H](OCC)C[C@H]2C(=O)NC2(CCC2)C(=O)N(C)[C@@H](C2CCCC2)C(=O)N(C)[C@H](C(=O)N(C)CCOC)CC(=O)N1C [PP1331]
[reply] 0.08

Where do these numbers come from? They come from patent US20240158446A1.
